molecular target: rat VR1 (Rattus norvegicus); construct: expressed in transfected cells; assay: [3H]resiniferatoxin (RTX) competition binding assay, VR1-transfected CHO cells; settings: competition with [3H]RTX, rat VR1 in CHO cells; read-out: Ki (nM) Binding Affinity
Catalogue of Ki values
Please respond with the number in nM and leave the unit unwritten.

Known Ki results, listed for orientation:
Assay rat VR1 (Rattus norvegicus), sample CC(C(=O)NCCc1ccc(C(C)(C)C)cc1)c1ccc(NS(C)(=O)=O)c(F)c1 (centres unmarked) , Ki read: 553

Assay rat VR1 (Rattus norvegicus), sample CC(C(=O)NCc1ccc(C(C)(C)C)cc1)c1ccc(NS(C)(=O)=O)c(C(=O)NCc2ccccc2)c1 (centres unmarked) , Ki read: 3710

Assay rat VR1 (Rattus norvegicus), sample CC(C(=O)NC(c1ccccc1)c1ccccc1)c1ccc(NS(C)(=O)=O)c(F)c1 (centres unmarked) , Ki read: 5860

Assay rat VR1 (Rattus norvegicus), sample CC(C(=O)NCc1ccc(C(C)(C)C)cc1)c1ccc(NS(C)(=O)=O)cc1Cl (centres unmarked) , Ki read: 1420

Assay rat VR1 (Rattus norvegicus), sample COc1cc(C2(C(=O)NCC(COC(=O)C(C)(C)C)Cc3ccc(C)c(C)c3)CC2)ccc1NS(C)(=O)=O (centres unmarked) , Ki read: 238

Continuing:
Assay rat VR1 (Rattus norvegicus), sample C[C@@H](C(=O)NC[C@@H](COC(=O)C(C)(C)C)Cc1ccc(C(C)(C)C)cc1)c1ccc(NS(C)(=O)=O)c(F)c1 , Ki read: 63.8

Assay rat VR1 (Rattus norvegicus), sample CC(C)(C)c1ccc(CNC(=S)NC(c2ccccc2)c2ccc(NS(C)(=O)=O)c(F)c2)cc1 (centres unmarked) , Ki read: 100

Assay rat VR1 (Rattus norvegicus), sample COc1cc(C2(C(=O)NCc3ccc(C(C)(C)C)cc3)CC2)ccc1NS(C)(=O)=O , Ki read: 745

* * *

Catalogue of melting point values

For COC(=O)c1cc(C(C)C(=O)NCc2ccc(C(C)(C)C)cc2)ccc1NS(C)(=O)=O (stereo not shown) [1-59] the molecule record lists melting point as 142 to 144 °C

For C[C@@H](NC(=S)NC[C@@H](COC(=O)C(C)(C)C)Cc1ccc(C(C)(C)C)cc1)c1ccc(NS(C)(=O)=O)cc1 [18-12] the molecule record lists melting point as 88 to 90 °C

For COc1cc(C(C)(C)NC(=S)NCc2ccc(C(C)(C)C)cc2)ccc1NS(C)(=O)=O [21-9] the molecule record lists melting point as 148 to 150 °C

Continuing:
For CC(C(=O)NCC(COC(=O)C(C)(C)C)Cc1ccc(C(C)(C)C)cc1)c1ccc(NS(C)(=O)=O)cc1 (stereo not shown) [5-2] the molecule record lists melting point as 97 to 100 °C

For CC(NC(=S)NCC(COC(=O)C(C)(C)C)Cc1ccc(C(C)(C)C)cc1)c1ccc(NS(C)(=O)=O)c(F)c1 (stereo not shown) [18-14] the molecule record lists melting point as 78 °C

For CC(NC(=S)NCc1ccc(C(C)(C)C)cc1)c1ccc(NS(C)(=O)=O)c(F)c1 (stereo not shown) [15-2] the molecule record lists melting point as 165 °C

For CC(NC(=S)NCc1ccc(C(C)(C)C)cc1)c1ccc(NS(C)(=O)=O)c(C(=O)O)c1 (stereo not shown) [15-5] the molecule record lists melting point as 189 to 192 °C

* * *

Catalogue of melting point values
Please respond with the number in °C and leave the unit unwritten.

For CC(C)C(NC(=S)NCc1ccc(C(C)(C)C)cc1)c1ccc(NS(C)(=O)=O)c(F)c1 (centres unmarked) [20-13] the compound record lists melting point as 84

Continuing:
For CCC(NC(=S)NCc1ccc(C(C)(C)C)cc1)c1ccc(NS(C)(=O)=O)c(F)c1 (centres unmarked) [20-12] the compound record lists melting point as 85

* * *

target: rat VR1 (Rattus norvegicus); construct: expressed in transfected cells; assay: [3H]resiniferatoxin (RTX) competition binding assay, VR1-transfected CHO cells; conditions: competition with [3H]RTX, rat VR1 in CHO cells; read-out: Ki (nM) Binding Affinity
Catalogue of Ki values
Report field: quantity (unit follows the number).

For C[C@H](C(=O)NC[C@@H](COC(=O)C(C)(C)C)Cc1ccc(C(C)(C)C)cc1)c1ccc(NS(C)(=O)=O)c(Cl)c1 the molecule record lists Ki as 3.29 nM

Continuing:
For C[C@H](C(=O)NC[C@@H](COC(=O)C(C)(C)C)Cc1ccccc1)c1ccc(NS(C)(=O)=O)c(F)c1 the molecule record lists Ki as 20.3 nM

For CC(NC(=O)Cc1ccc(C(C)(C)C)cc1)c1ccc(NS(C)(=O)=O)c(F)c1 (centres unmarked) the molecule record lists Ki as 2130 nM

* * *

Catalogue of melting point values

Known melting point results, listed for orientation:
For CC(C(=O)NCC(COC(=O)C(C)(C)C)Cc1ccc(C(C)(C)C)cc1)c1ccc(NS(C)(=O)=O)c(Cl)c1 (stereo not shown) the compound record lists melting point as 142 to 144 °C

For COc1cc(C2(C(=O)NCCCc3ccc(C)c(C)c3)CC2)ccc1NS(C)(=O)=O the compound record lists melting point as 88 to 89 °C

For Cc1ccc(CC(CNC(=S)NC(C)c2ccc(NS(C)(=O)=O)c(F)c2)COC(=O)C(C)(C)C)cc1C (stereo not shown) the compound record lists melting point as 73 °C

For C[C@H](NC(=S)NC[C@H](COC(=O)C(C)(C)C)Cc1ccccc1)c1ccc(NS(C)(=O)=O)cc1 the compound record lists melting point as 58 to 62 °C

For CC(C(=O)NCC(COC(=O)C(C)(C)C)Cc1ccc(C(C)(C)C)cc1)c1ccc(NS(C)(=O)=O)c(F)c1 (stereo not shown) the compound record lists melting point as 113 to 115 °C

For COc1cc(C(C)(C)C(=O)NCC(COC(=O)C(C)(C)C)Cc2ccc(C)c(C)c2)ccc1NS(C)(=O)=O (stereo not shown) the compound record lists melting point as 100 to 103 °C

# evaluate next
For CC(C(=O)NC1CCCc2ccccc21)c1ccc(NS(C)(=O)=O)c(F)c1 (stereo not shown) the compound record lists melting point as 116 to 117 °C

* * *

molecular target: rat VR1 (Rattus norvegicus, UniProt O35433); construct: expressed in transfected cells; assay: 45Ca2+-uptake assay in CHO/VR1 cells, antagonism of capsaicin-stimulated uptake; assay type: cell-based; settings: 45Ca2+ uptake stimulated by 50 nM capsaicin
Sequence (O35433 whole entry): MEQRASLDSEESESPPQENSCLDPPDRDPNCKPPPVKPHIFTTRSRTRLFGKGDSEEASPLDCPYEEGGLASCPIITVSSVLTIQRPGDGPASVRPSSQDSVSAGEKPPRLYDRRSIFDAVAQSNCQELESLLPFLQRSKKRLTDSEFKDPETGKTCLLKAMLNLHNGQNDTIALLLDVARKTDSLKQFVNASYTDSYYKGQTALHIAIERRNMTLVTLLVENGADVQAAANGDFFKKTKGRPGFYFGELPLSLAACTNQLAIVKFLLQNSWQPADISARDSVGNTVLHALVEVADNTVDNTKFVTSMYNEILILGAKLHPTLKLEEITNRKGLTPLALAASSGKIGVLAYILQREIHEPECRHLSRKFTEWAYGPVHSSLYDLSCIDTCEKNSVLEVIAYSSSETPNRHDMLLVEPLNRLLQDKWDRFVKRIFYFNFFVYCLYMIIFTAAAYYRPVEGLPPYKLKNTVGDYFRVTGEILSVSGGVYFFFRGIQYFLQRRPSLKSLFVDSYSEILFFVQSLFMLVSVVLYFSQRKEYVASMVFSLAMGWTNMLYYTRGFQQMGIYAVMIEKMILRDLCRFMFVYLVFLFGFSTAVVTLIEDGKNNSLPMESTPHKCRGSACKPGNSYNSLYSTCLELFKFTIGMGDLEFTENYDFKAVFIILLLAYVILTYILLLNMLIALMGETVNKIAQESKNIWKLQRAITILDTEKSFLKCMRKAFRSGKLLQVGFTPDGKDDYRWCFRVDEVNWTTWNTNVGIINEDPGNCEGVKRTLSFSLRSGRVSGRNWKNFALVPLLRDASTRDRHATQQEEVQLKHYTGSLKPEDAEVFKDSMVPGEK
measured_attribute: Ki (nM)
Please respond with the number in nM and leave the unit unwritten.

Known Ki results, listed for orientation:
For CC(C(=O)NCCc1ccc(C(C)(C)C)cc1)c1ccc(NS(C)(=O)=O)c(F)c1 (stereo not shown) the molecule record lists Ki as 42.6

For CC(C(=O)NCc1ccc(Cl)c(Cl)c1)c1ccc(NS(C)(=O)=O)cc1 (stereo not shown) the molecule record lists Ki as 253

For CC(C(=O)NCCC(c1ccccc1)c1ccccc1)c1ccc(NS(C)(=O)=O)c(F)c1 (stereo not shown) the molecule record lists Ki as 36.6

# evaluate next
For Cc1ccc(C[C@H](CNC(=S)N[C@H](C)c2ccc(NS(C)(=O)=O)cc2)COC(=O)C(C)(C)C)cc1C the molecule record lists Ki as 7.14

* * *

Target: rat VR1 (Rattus norvegicus, UniProt O35433)
Construct: expressed in transfected cells
Assay: [3H]resiniferatoxin (RTX) competition binding assay, VR1-transfected CHO cells
Conditions: competition with [3H]RTX, rat VR1 in CHO cells; read-out: Ki (nM) Binding Affinity
Experimental: The pUHG102 VR1 plasmid was transfected into CHO cells containing the pTet Off regulatory plasmid (Clontech). In these cells, expression of the VR1 is repressed in the presence of tetracycline but is induced upon removal of the antibiotic. […] Binding studies with [^3H]resiniferatoxin (RTX) were carried out as described previously with minor modifications (Szallasi et al., 1992). […] Non-specific binding was determined in the presence of 100 nM nonradioactive RTX. […]
Cut-off 200 nM on Ki: below means rule met, at or above means rule not met.

For CC(NC(=O)CCc1ccc(C(C)(C)C)cc1)c1ccc(NS(C)(=O)=O)c(F)c1 (centres unmarked) , is the recorded Ki below the cut-off of 200 nM?
rule not met

For Cc1ccc(CC(CNC(=O)C2(c3ccc(NS(C)(=O)=O)c(F)c3)CC2)COC(=O)C(C)(C)C)cc1C (centres unmarked) , is the recorded Ki below the cut-off of 200 nM?
rule not met

For CC(C(=O)NCc1cccc2ccccc12)c1ccc(NS(C)(=O)=O)c(F)c1 (centres unmarked) , is the recorded Ki below the cut-off of 200 nM?
rule not met

For CC(C(=O)NCC(COC(=O)C(C)(C)C)Cc1ccc(C(C)(C)C)cc1)c1ccc(NS(C)(=O)=O)c(F)c1 (centres unmarked) , is the recorded Ki below the cut-off of 200 nM?
rule met

For C[C@H](C(=O)N[C@@H](COC(=O)C(C)(C)C)Cc1ccccc1)c1ccc(NS(C)(=O)=O)c(F)c1 , is the recorded Ki below the cut-off of 200 nM?
rule not met

For Cc1ccc(CC(CNC(=O)C2(c3ccc(NS(C)(=O)=O)cc3)CC2)COC(=O)C(C)(C)C)cc1C (centres unmarked) , is the recorded Ki below the cut-off of 200 nM?
rule not met

For Cc1ccc(CC(CNC(=O)C(C)c2ccc(NS(C)(=O)=O)cc2)COC(=O)C(C)(C)C)cc1C (centres unmarked) , is the recorded Ki below the cut-off of 200 nM?
rule met

For CC(C)(C)c1ccc(CNC(=S)NC(Cc2ccccc2)c2ccc(NS(C)(=O)=O)c(F)c2)cc1 (centres unmarked) , is the recorded Ki below the cut-off of 200 nM?
rule not met

For C[C@@H](C(=O)NC[C@@H](COC(=O)C(C)(C)C)Cc1ccccc1)c1ccc(NS(C)(=O)=O)c(F)c1 , is the recorded Ki below the cut-off of 200 nM?
rule not met

For CC(C(=O)NCC=C(c1ccc(F)cc1)c1ccc(F)cc1)c1ccc(NS(C)(=O)=O)c(F)c1 (centres unmarked) , is the recorded Ki below the cut-off of 200 nM?
rule met

Continuing:
For CC(C(=O)NCc1ccc(C(C)(C)C)cc1)c1ccc(NS(C)(=O)=O)c(Br)c1 (centres unmarked) , is the recorded Ki below the cut-off of 200 nM?
rule met

For Cc1ccc(CCCNC(=O)[C@H](C)c2ccc(NS(C)(=O)=O)c(F)c2)cc1C , is the recorded Ki below the cut-off of 200 nM?
rule not met

For CC(C)(C)c1ccc(CNC(=O)C2(c3ccc(NS(C)(=O)=O)cc3)CC2)cc1 , is the recorded Ki below the cut-off of 200 nM?
rule not met

For CC(C)(C)c1ccc(CNC(=S)NC2(c3ccc(NS(C)(=O)=O)cc3)CC2)cc1 , is the recorded Ki below the cut-off of 200 nM?
rule met
